Target: Substance-K receptor (Oryctolagus cuniculus, UniProt P79218)
Sequence (P79218 whole entry): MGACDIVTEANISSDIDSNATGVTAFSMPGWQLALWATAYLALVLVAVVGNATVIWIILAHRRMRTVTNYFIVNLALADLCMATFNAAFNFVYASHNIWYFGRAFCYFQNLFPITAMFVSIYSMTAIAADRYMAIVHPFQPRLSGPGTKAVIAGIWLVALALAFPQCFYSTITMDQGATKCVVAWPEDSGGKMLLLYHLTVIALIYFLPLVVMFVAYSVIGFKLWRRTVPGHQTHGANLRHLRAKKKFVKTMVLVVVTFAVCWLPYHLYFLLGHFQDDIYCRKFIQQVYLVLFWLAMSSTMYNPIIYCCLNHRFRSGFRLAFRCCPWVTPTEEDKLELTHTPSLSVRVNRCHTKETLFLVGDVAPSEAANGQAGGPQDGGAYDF
Experiment: Inhibition of neurokinin A induced contraction of rabbit pulmonary artery (RPA) tissue expressing Tachykinin receptor 2
Format: functional, tissue-based
Conditions: read-out: pA2 (converted)
Each entry below carries its reported Kb.
Hi! Could you send only the number? It should be in µM, unit omitted.

Example entries and their recorded answers appear below.
> print(dat)
                                   compound                               measured.on  result.units  data.value
1  COc1ccccc1CN(C[C@@H](Cc1c[nH]c2ccccc12)NC(=O)CN1CCC(N2CCCCC2)CC1)C(C)=O [LANEPITANT]  Substance-K receptor (Oryctolagus cuniculus, UniProt P79218)            µM          20
2  COc1ccccc1CN(C[C@H](Cc1c[nH]c2ccccc12)NC(=O)CN1CCC(N2CCCCC2)CC1)C(C)=O  Substance-K receptor (Oryctolagus cuniculus, UniProt P79218)            µM          20
3  COc1ccccc1CN[C@H]1C2CCN(CC2)[C@H]1C(c1ccccc1)c1ccccc1  Substance-K receptor (Oryctolagus cuniculus, UniProt P79218)            µM        50.1

Here is another compound to look at.
The value of Kb measured for the compound `COc1ccccc1CN(C[C@H](Cc1c[nH]c2ccccc12)NC(=O)CN1CCN(c2ccccc2)CC1)C(C)=O` turned out to be 20
